tested-system: NRAS Q61R (Homo sapiens, UniProt P01111+P62937, Q61R)
Sequence (P01111 whole entry Q61R): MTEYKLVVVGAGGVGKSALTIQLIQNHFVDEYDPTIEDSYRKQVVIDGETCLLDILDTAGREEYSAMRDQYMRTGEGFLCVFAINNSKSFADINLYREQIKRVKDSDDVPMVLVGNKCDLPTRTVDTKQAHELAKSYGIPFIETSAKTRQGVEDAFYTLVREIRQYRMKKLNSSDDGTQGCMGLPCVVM
Sequence (P62937 whole entry): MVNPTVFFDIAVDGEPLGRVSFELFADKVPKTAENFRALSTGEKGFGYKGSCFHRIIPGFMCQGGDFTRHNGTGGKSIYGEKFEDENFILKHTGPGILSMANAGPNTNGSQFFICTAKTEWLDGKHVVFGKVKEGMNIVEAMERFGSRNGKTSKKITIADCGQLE
test-summary: Disruption of BRAF RBD interaction with Ras (FRET / MOA assay, with Cyclophilin A)
Assay type: biochemical
condition-label: NRAS Q61R; read-out: NRAS Q61R FRET data IC50
pIC50: −log10 of the molar value.
Catalogue of pIC50 values

Observe how each entry below is paired with its result.
[[record]]
molecule = "CCn1c(-c2cc(N3CCN(C)CC3)cnc2[C@H](C)OC)c2c3cc(ccc31)-c1cc(O)cc(c1)C[C@H](NC(=O)[C@H](C1CCCC1)N(C)C(=O)[C@H]1OCC[C@H]1c1ccccc1)C(=O)N1CCC[C@H](N1)C(=O)OCC(C)(C)C2 [Example A423]"
test_result = "6.00 to 7.00"

[[record]]
molecule = "CCn1c(-c2cccnc2[C@H](C)OC)c2c3cc(ccc31)-c1csc(n1)C[C@H](NC(=O)[C@H]1CCO1)C(=O)N1CCC[C@H](N1)C(=O)OCC(C)(C)C2 [Example A360]"
test_result = "5.00 to 6.00"

[[record]]
molecule = "CCn1c(-c2cccnc2[C@H](C)OC)c2c3cc(ccc31)-c1csc(n1)C[C@H](NC(=O)[C@H](C(C)C)N(C)C(=O)N1CCC[C@H](CN(C)C)C1)C(=O)N1CCC[C@H](N1)C(=O)OCC(C)(C)C2 (atropisomer, axis not shown) [Example A573]"
test_result = "6.00 to 7.00"


What measured pIC50 goes with CCn1c(-c2cnccc2COC)c2c3cc(ccc31)-c1cc(O)cc(c1)C[C@H](NC(=O)[C@H](C(C)C)N(C)C(=O)c1ncco1)C(=O)N1CCC[C@H](N1)C(=O)OCC(C)(C)C2 [Example A38] ?
6.00 to 7.00

----------
tested-system: KRAS G13C (Homo sapiens, UniProt P01116+P62937, G13C)
Sequence (P01116 1-169 isoform P01116-2 G13C): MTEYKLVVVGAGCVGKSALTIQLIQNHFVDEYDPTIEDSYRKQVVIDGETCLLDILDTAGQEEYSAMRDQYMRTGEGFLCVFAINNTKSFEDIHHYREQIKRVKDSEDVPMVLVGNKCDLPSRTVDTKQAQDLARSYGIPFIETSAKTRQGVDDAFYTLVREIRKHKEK
Sequence (P62937 whole entry): as the sequence (P62937 whole entry) above
test-summary: Disruption of BRAF RBD interaction with Ras (FRET / MOA assay, with Cyclophilin A)
Type: biochemical
condition-label: read-out: KRAS G13C FRET data, IC50
Quick list: IC50 per entry.

[[record]]
compound = "CCn1c(-c2cccnc2[C@H](C)OC)c2c3cc(ccc31)-c1cc(O)cc(c1)C[C@H](NS(=O)(=O)CCN(C)C)C(=O)N1CCC[C@H](N1)C(=O)OCC(C)(C)C2 (racemic)"
test_result = "> 10000 nM"

[[record]]
compound = "CCn1c(-c2cccnc2[C@H](C)OC)c2c3cc(ccc31)-c1csc(n1)C[C@H](NC(=O)[C@H](C(C)C)N(C)C(=O)N1CCOCC1)C(=O)N1CCC[C@H](N1)C(=O)OCC(C)(C)C2 (atropisomer, axis not shown)"
test_result = "100 to 1000 nM"

[[record]]
compound = "CCn1c(-c2cccnc2[C@H](C)OC)c2c3cc(ccc31)-c1cc(O)cc(c1)C[C@H](NC(=O)[C@H](C(C)C)N(C)C(=O)N1CC(N(C)C)C1)C(=O)N1CCC[C@H](N1)C(=O)OCC(C)(C)C2"
test_result = "10 to 100 nM"

[[record]]
compound = "CCn1c(-c2cnccc2COC)c2c3cc(ccc31)-c1cc(O)cc(c1)C[C@H](NC(=O)[C@H](C(C)C)N(C)C(=O)[C@H]1CCN(C(=O)C3COC3)C1)C(=O)N1CCC[C@H](N1)C(=O)OCC(C)(C)C2"
test_result = "100 to 1000 nM"


Which measured IC50 value corresponds to CCn1c(-c2cccnc2[C@H](C)OC)c2c3cc(ccc31)-c1csc(n1)C[C@H](NC(=O)[C@H](C(C)C)N(C)C(=O)N1C3CC1CS(=O)(=O)C3)C(=O)N1CCC[C@H](N1)C(=O)OCC(C)(C)C2 ?
1000 to 10000 nM

Quick one: IC50 for CCn1c(-c2cccnc2[C@H](C)OC)c2c3cc(ccc31)-c1cc(C#N)cc(c1)C[C@H](NC(=O)[C@H](C(C)C)N(C)C(C)=O)C(=O)N1CCC[C@H](N1)C(=O)OCC(C)(C)C2 (atropisomer, axis not shown) ?
> 10000 nM

What value of IC50 has been reported for the following compound? CCn1c(-c2cnccc2COC)c2c3cc(ccc31)-c1cc(O)cc(c1)C[C@H](NC(=O)[C@H](C(C)C)N(C)C(=O)[C@H]1CCOC1)C(=O)N1CCC[C@H](N1)C(=O)OCC(C)(C)C2
100 to 1000 nM

Please look up its IC50: CCn1c(-c2cccnc2[C@H](C)OC)c2c3cc(ccc31)-c1csc(n1)C[C@H](NC(=O)[C@H](C(C)C)N(C)C(=O)N1CC(S(=O)(=O)NC)C1)C(=O)N1CCC[C@H](N1)C(=O)OCC(C)(C)C2 (atropisomer, axis not shown)
100 to 1000 nM

Could you share which IC50 value was measured for CCn1c(-c2cccnc2[C@H](C)OC)c2c3cc(ccc31)-c1cc(O)cc(c1)C[C@H](NC(=O)[C@H](C(C)C)N(C)C(=O)C1(CO)CC1)C(=O)N1CCC[C@H](N1)C(=O)OCC(C)(C)C2 ?
100 to 1000 nM

----------
molecules and their reported pIC50
tested-system: KRAS G12D (Homo sapiens, UniProt P01116+P62937, G12D)
Sequence (P01116 1-169 isoform P01116-2 G12D limits assumed): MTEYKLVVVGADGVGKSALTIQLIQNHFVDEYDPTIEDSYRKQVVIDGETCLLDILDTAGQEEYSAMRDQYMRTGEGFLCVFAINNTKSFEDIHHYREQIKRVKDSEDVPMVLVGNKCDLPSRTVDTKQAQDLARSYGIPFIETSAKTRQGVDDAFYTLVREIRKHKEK
Sequence (P62937 whole entry): as the sequence (P62937 whole entry) above
test-summary: Ras-Raf disruption / FRET / MOA assay (BRAF RBD)
Type: biochemical
condition-label: Ras-Raf disruption, with Cyclophilin A; read-out: KRAS G12D FRET data IC50
pIC50: −log10 of the molar value.

Use the examples below as a reference point.
[[record]]
molecule = "CCn1c(-c2cccnc2[C@H](C)OC)c2c3cc(ccc31)-c1cc(O)cc(c1)C[C@H](NC(=O)[C@H](C(C)C)N(C)C(=O)C1CCN(C(=O)[C@@H]3CN3)CC1)C(=O)N1CCC[C@H](N1)C(=O)OCC(C)(C)C2"
observable = "pIC50"
test_result = "6.00 to 7.00"

[[record]]
molecule = "CCn1c(-c2cccnc2[C@H](C)OC)c2c3cc(ccc31)-c1cc(O)cc(c1)C[C@H](NC(=O)[C@H](C(C)C)N(C)C(=O)[C@@H]1CCN(C(=O)[C@H]3CN3)[C@@H]1C)C(=O)N1CCC[C@H](N1)C(=O)OCC(C)(C)C2 (atropisomer, axis not shown)"
observable = "pIC50"
test_result = "6.00 to 7.00"


Recorded pIC50 for CCn1c(-c2cnccc2COC)c2c3cc(ccc31)-c1cccc(c1)C[C@H](NC(=O)[C@H](C(C)C)N(C)C(=O)CCN=C=NCCOC)C(=O)N1CCC[C@H](N1)C(=O)OCC(C)(C)C2 , please?
5.00 to 6.00

Report pIC50 for CCn1c(-c2cccnc2[C@H](C)OC)c2c3cc(ccc31)-c1csc(n1)C[C@H](NC(=O)[C@H](C(C)C)N(C)C(=O)N1CCCN(C(=O)[C@@H]3CN3)CC1)C(=O)N1CCC[C@H](N1)C(=O)OCC(C)(C)C2 (atropisomer, axis not shown) please.
6.00 to 7.00

----------
tested-system: NRAS Q61K (Homo sapiens, UniProt P01111+P62937, Q61K)
Sequence (P01111 whole entry Q61K): as the sequence (P01111 whole entry Q61R) above, with R61K counted along it
Sequence (P62937 whole entry): as the sequence (P62937 whole entry) above
test-summary: Disruption of BRAF RBD interaction with Ras (FRET / MOA assay, with Cyclophilin A)
Format: biochemical
condition-label: NRAS Q61K; read-out: NRAS Q61K FRET data IC50
Source text: Disruption of B-Raf Ras-Binding Domain (BRAF^RBD) Interaction with K-Ras by Compounds of the Invention (Also Called a FRET Assay or an MOA Assay) Note—The following protocol describes a procedure for monitoring disruption of K-Ras G12C (GMP-PNP) binding to BRAF^RBD by a compound of the invention. This protocol may also be executed substituting other Ras proteins or nucleotides. […]
observable: IC50

Known IC50 results, listed for orientation:
[[record]]
compound = "CCn1c(-c2cccnc2[C@H](C)OC)c2c3cc(ccc31)-c1csc(n1)C[C@H](NC(=O)[C@H](C(C)C)N(C)C(=O)N1CC3(CCN(C)CC3)C1)C(=O)N1CCC[C@H](N1)C(=O)OCC(C)(C)C2"
observable = "IC50"
test_result = "100 to 1000 nM"

[[record]]
compound = "CCn1c(-c2cccnc2[C@H](C)OC)c2c3cc(ccc31)-c1csc(n1)C[C@H](NC(=O)[C@H](C(C)C)N(C)C(=O)N1CC([C@H](C)CO)C1)C(=O)N1CCC[C@H](N1)C(=O)OCC(C)(C)C2 (atropisomer, axis not shown)"
observable = "IC50"
test_result = "10 to 100 nM"

[[record]]
compound = "CCn1c(-c2cnccc2COC)c2c3cc(ccc31)-c1cc(O)cc(c1)C[C@H](NC(=O)[C@H](C(C)C)N(C)C(=O)[C@H]1CCN(C(=O)/C=C/CN(C)C)C1)C(=O)N1CCC[C@H](N1)C(=O)OCC(C)(C)C2"
observable = "IC50"
test_result = "100 to 1000 nM"


// below: IC50 requested for another compound
Test system NRAS Q61K (Homo sapiens, UniProt P01111+P62937, Q61K); read-out IC50; what value for CCn1c(-c2cccnc2[C@H](C)OC)c2c3cc(ccc31)-c1cc(O)cc(c1)C[C@H](NC(=O)[C@H](C(C)C)N(C)C(=O)OC1CC1)C(=O)N1CCC[C@H](N1)C(=O)OCC(C)(C)C2 ?
100 to 1000 nM
